measurement_description: Cytotoxicity against Escherichia coli WP2 (trpE65 deltauvrApKM101) assessed as cell viability up to 10 to 300 ug/mL after 72 hrs in presence of 25 ug/plate 2-aminoanthracene and metabolic activation system S9
Format: ADME, organism-based
run_conditions: read-out: Activity
For each of the compounds below, state its viability at 72 h.
Answer format: numeric, % implied, no suffix.

Quick note, viability at 72 h for CC(C)/C(=N/OS(=O)(=O)O)S[C@@H]1O[C@H](CO)[C@@H](O)[C@H](O)[C@H]1O landed at 93

Quick note, viability at 72 h for CC(C)N=C=S [ISOPROPYL ISOTHIOCYANATE] landed at 93

The measurements presented in this section are drawn from ChEMBL document CHEMBL2203056.
